# Species on record: Rattus norvegicus
# assayInfo: Open TG-GATES - Regimen: Single
# Format: toxicity, organism-based, Sprague-Dawley
# Design: regimen Single, gender Male, age 6 weeks
# testSettings: in vivo, po, 1000 mg/kg, 24 h, tissue Plasma, route gavage, dose level High
Parameter: gamma-GTP. Scope: all listed entries.
Write the value in IU/L as a bare number.

Worked cases, gamma-GTP given:
What measured gamma-GTP goes with O=C(OC[C@H]1O[C@@H](OC(=O)c2cc(O)c(O)c(OC(=O)c3cc(O)c(O)c(O)c3)c2)[C@H](OC(=O)c2cc(O)c(O)c(OC(=O)c3cc(O)c(O)c(O)c3)c2)[C@@H](OC(=O)c2cc(O)c(O)c(OC(=O)c3cc(O)c(O)c(O)c3)c2)[C@@H]1OC(=O)c1cc(O)c(O)c(OC(=O)c2cc(O)c(O)c(O)c2)c1)c1cc(O)c(O)c(OC(=O)c2cc(O)c(O)c(O)c2)c1 ?
0.8

What measured gamma-GTP goes with CNC(=C[N+](=O)[O-])NCCSCc1ccc(CN(C)C)o1 ?
0.8

What measured gamma-GTP goes with COC(=O)C1=C(C)NC(C)=C(C(=O)OC)C1c1ccccc1[N+](=O)[O-] ?
1

What measured gamma-GTP goes with Cc1nnc2n1-c1ccc(Cl)cc1C(c1ccccc1Cl)=NC2 ?
1

We next turn to a different compound, shown below.
What measured gamma-GTP goes with CN/C(=N/CCSCc1nc[nH]c1C)NC#N ?
1.4

* * *

# Organism: Rattus norvegicus
# assayInfo: Open TG-GATES - Regimen: Daily Repeat
# Format: toxicity, organism-based, Sprague-Dawley
# Parameters: regimen Daily Repeat, gender Male, age 6 weeks
# testSettings: in vivo, po, 0 mg/kg, […], tissue Plasma, route gavage, dose level Control, time 7 day
readoutType: TC
Field note: include the unit after the figure.

Worked cases, TC given:
What measured TC goes with CCOc1ccc(NC(C)=O)cc1 ?
84.4 mg/dL

What measured TC goes with CN(C)CCC(c1ccc(Cl)cc1)c1ccccn1 (centres undefined) ?
86.6 mg/dL

Continuing:
What measured TC goes with Cc1nnc2n1-c1ccc(Cl)cc1C(c1ccccc1Cl)=NC2 ?
85 mg/dL

What measured TC goes with Brc1ccccc1 ?
75.4 mg/dL

* * *

# Species: Rattus norvegicus
# assayInfo: Open TG-GATES - Regimen: Single
# Format: toxicity, organism-based, Sprague-Dawley
# Parameters: regimen Single, gender Male, age 6 weeks
# testSettings: in vivo, po, 100 mg/kg, 6 h, tissue Blood, route gavage, dose level Low
Parameter: APTT. Scope: all listed entries.
Write the value in s as a bare number.

What measured APTT goes with O=C(OC[C@H]1O[C@@H](OC(=O)c2cc(O)c(O)c(OC(=O)c3cc(O)c(O)c(O)c3)c2)[C@H](OC(=O)c2cc(O)c(O)c(OC(=O)c3cc(O)c(O)c(O)c3)c2)[C@@H](OC(=O)c2cc(O)c(O)c(OC(=O)c3cc(O)c(O)c(O)c3)c2)[C@@H]1OC(=O)c1cc(O)c(O)c(OC(=O)c2cc(O)c(O)c(O)c2)c1)c1cc(O)c(O)c(OC(=O)c2cc(O)c(O)c(O)c2)c1 ?
17.1

We next turn to a different compound, shown below.
What measured APTT goes with Cc1nnc2n1-c1ccc(Cl)cc1C(c1ccccc1Cl)=NC2 ?
19.9

Just for reference, ChEMBL document CHEMBL3885861 is where these values come from.
